Biological target: Human M4 (Homo sapiens, UniProt P08173)
Construct: expressed in transfected cells
Sequence (P08173 1-479): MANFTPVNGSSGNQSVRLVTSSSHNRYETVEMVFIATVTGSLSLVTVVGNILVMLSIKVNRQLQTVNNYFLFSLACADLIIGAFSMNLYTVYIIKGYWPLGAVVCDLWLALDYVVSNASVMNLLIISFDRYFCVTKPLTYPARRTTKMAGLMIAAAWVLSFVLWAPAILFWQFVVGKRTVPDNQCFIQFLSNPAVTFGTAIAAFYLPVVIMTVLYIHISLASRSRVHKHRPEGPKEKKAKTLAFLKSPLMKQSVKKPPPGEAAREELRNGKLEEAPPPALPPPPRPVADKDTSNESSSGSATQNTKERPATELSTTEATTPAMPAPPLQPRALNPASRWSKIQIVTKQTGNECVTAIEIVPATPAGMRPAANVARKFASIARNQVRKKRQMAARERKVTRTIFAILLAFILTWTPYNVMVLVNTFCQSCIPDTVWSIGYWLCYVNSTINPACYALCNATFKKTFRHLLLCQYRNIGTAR
Assay: mAChR M4 cell-based functional assay (calcium flux, potentiation of EC20 acetylcholine response), hM4-Gqi5 CHO-K1 cells
Conditions: Table 3; potentiation of EC20 acetylcholine response, calcium flux, CHO-K1 cells; read-out: Human M4 EC50
measurement kind: EC50 (nM)

Here's what some known entries look like.
Prompt: # get_value(readout='EC50', item= Cc1cc2nnc(C(F)(F)F)n2nc1N1CCc2ncc(Oc3cc(F)ccc3F)cc2C1 )
Response: 379

Prompt: // query: Cc1c(N2CCc3ncc(C(C)(C)O)cc3C2)nn2c(C(F)(F)F)nnc2c1C
Response: 906

Prompt: // query: Cc1c(N2CCc3ncc(NC(=O)C(C)C)cc3C2)nn2cnnc2c1C
Response: 3630

(A) Cc1c(N2CCc3ncc(-c4ccc(N5CCN(C)CC5)cc4)cc3C2)nn2cnnc2c1C
(B) Cc1c(N2CCc3ncc(-c4cnn(C5CC5)c4)cc3C2)nn2c(C(F)(F)F)nnc2c1C
Prompt: Would you kindly point out which of A and B has the smaller EC50 figure? Respond using the label that marks the chosen record.
Response: B
(B: 330 nM, A: 581 nM)

(a) Cc1c(N2CCc3ncc(-c4ccc(N5CCOCC5)cc4)cc3C2)nn2cnnc2c1C
(b) Cc1c(N2CCc3ncc(C(C)(O)C4CC4)cc3C2)nn2cnnc2c1C (centres unmarked)
(c) Cc1c(N2CCc3ncc(Nc4cnn(C)c4)cc3C2)nn2cnnc2c1C
Prompt: Write the entries in order, lowest recorded EC50 first. Order the labels as requested and give them as your answer.
Response: a, c, b

###

target: Human M4 (Homo sapiens, UniProt P08173); construct: expressed in transfected cells; assay: mAChR M4 cell-based functional assay (calcium flux, potentiation of EC20 acetylcholine response), hM4-Gqi5 CHO-K1 cells; settings: Table 3; potentiation of EC20 acetylcholine response, calcium flux, CHO-K1 cells; read-out: Human M4 EC50
measurement kind: EC50 (µM)

Prompt: Write down the reported EC50 of Cc1c(N2CCc3ncc(N4CCCn5nccc54)cc3C2)nn2c(C(F)(F)F)nnc2c1C , test system: Human M4 (Homo sapiens, UniProt P08173).
Response: 0.037

Prompt: // query: Cc1c(N2CCc3ncc(-c4ccnn4C)cc3C2)nn2c(C(F)(F)F)nnc2c1C
Response: 0.169

Prompt: // query: Cc1c(N2CCc3ncc(Oc4cc(F)ccc4F)cc3C2)nn2cnnc2c1C
Response: 0.086

Prompt: // query: Cc1ncc(-c2cnc3c(c2)CN(c2nn4cnnc4cc2C)CC3)s1
Response: 0.292

(1) Cc1c(N2CCc3ncc(C(=O)Nc4ccccc4F)cc3C2)nn2c(C(F)(F)F)nnc2c1C
(2) Cc1nc(C)c(-c2cnc3c(c2)CN(c2nn4cnnc4cc2C)CC3)s1
(3) Cc1cc(Nc2cnc3c(c2)CN(c2nn4cnnc4c(C)c2C)CC3)n(CCC(C)C)n1
Prompt: Task field, ranking: reported EC50, descending order. Order the labels as requested and give them as your answer.
Response: 3, 1, 2
